Reported IC50 by item:
Tested on: MDA-MB-231
Assay: Antiproliferative activity against human MDA-MB-231 cells after 48 hrs by MTT assay
Format: functional, cell-based
Settings: MDA-MB-231, 48 h
PROPERTY NAME: IC50

1. Cc1ccc(/C=C2\CN(C(=S)NCCc3ccccc3)C/C(=C\c3ccc(C)cc3)C2=O)cc1 ... < 10 µM
2. O=C1/C(=C/c2ccc(F)cc2)CN(C(=S)NCCc2ccccc2)C/C1=C\c1ccc(F)cc1 ... < 10 µM
3. Cc1ccc(/C=C2\CN(C(=S)NC(=O)c3ccccc3)C/C(=C\c3ccc(C)cc3)C2=O)cc1 ... < 10 µM

* * *

Tested on: DLD-1
Test: Antiproliferative activity against human DLD1 cells at 100 uM relative to control
Assay type: functional
PROPERTY NAME: inhibition at 100 µM

1) CCOC(=O)C1=C(C)NC(=O)NC1c1cc(/C=N/NC(=S)NC)c(O)c(C(C)(C)C)c1 (stereo unspecified) ... > 80%
2) CCOC(=O)C1=C(C)NC(=O)NC1c1cc(/C=N/NC(N)=O)c(O)c(C(C)(C)C)c1 (stereo unspecified) ... < 80%
3) CCOC(=O)C1=C(C)NC(=O)NC1c1cc(/C=N/NC(=O)Nc2ccc(Br)cc2)c(O)c(C(C)(C)C)c1 (stereo unspecified) ... > 80%
4) CCOC(=O)C1=C(C)NC(=O)NC1c1cc(/C=N/NC(=O)Nc2cccc(OC)c2)c(O)c(C(C)(C)C)c1 (stereo unspecified) ... > 80%
5) CCOC(=O)C1=C(C)NC(=O)NC1c1cc(C)c(O)c(/C=N/NC(N)=S)c1 (stereo unspecified) ... > 80%
6) CCOC(=O)C1=C(C)NC(=S)NC1c1cc(/C=N/NC(=S)Nc2ccccc2)c(O)c(C(C)(C)C)c1 (stereo unspecified) ... < 80%

* * *

Biological target: DNA ligase 1 (Homo sapiens, UniProt P18858)
Sequence (P18858 whole entry): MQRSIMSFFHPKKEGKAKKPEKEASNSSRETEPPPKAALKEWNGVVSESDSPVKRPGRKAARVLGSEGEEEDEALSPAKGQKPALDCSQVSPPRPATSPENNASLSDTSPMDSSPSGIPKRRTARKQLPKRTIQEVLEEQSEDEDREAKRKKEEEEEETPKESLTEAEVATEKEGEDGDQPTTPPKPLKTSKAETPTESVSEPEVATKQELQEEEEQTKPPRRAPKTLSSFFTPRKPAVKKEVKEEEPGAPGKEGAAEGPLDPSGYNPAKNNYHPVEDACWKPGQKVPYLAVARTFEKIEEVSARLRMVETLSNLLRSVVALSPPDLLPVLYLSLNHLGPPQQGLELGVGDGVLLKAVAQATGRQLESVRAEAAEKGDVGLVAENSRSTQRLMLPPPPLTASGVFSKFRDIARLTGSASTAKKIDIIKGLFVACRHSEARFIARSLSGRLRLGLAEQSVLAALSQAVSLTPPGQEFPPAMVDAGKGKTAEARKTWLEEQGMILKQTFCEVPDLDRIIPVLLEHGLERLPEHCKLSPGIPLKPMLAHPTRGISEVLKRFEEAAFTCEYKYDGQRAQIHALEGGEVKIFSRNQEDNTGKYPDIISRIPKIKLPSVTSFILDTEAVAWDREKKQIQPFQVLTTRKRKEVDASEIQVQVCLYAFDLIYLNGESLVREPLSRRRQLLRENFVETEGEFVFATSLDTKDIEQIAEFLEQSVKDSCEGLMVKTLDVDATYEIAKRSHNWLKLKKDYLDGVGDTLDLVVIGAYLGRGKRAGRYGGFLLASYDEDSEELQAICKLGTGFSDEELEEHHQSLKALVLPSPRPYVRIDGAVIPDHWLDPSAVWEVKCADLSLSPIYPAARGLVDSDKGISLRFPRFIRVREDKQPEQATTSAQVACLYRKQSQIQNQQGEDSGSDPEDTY
Assay: Inhibition of human DNA ligase 1 at 50 uM using 52-mer DNA/25-mer DNA/27-mer DNA as substrate by fluorescence assay relative to control
PROPERTY NAME: inhibition (%)

1) COc1ccc(NC(=S)NCC23C=CC(O2)C2C(=O)N(c4ccccc4)C(=O)C23)c([N+](=O)[O-])c1 (stereo not given) ... 56.2
2) COc1cc([N+](=O)[O-])ccc1NC(=S)NCC12C=CC(O1)C1C(=O)N(c3c(Cl)cccc3Cl)C(=O)C12 (stereo not given) ... 75.9
3) COc1ccc(NC(=O)Nc2ccc3nc(C)cc(NC(=O)c4ccccc4Cl)c3c2)cc1 ... 12.2
4) O=[N+]([O-])c1ccc(N/N=C(/c2ccc(O)cc2)c2cccc3ccccc23)c([N+](=O)[O-])c1 ... 93.1
5) COC(=O)N1CCN(CC(=O)Nc2cc(C)nc3ccc(NC(=O)Nc4ccc(Br)cc4)cc23)CC1 ... 10.8
